- Test system: HCT-15 colon
- Measurement notes: NCI-60 one-dose screen, 48 h
- Assay setup: 10 µM unless noted
About 83,000 compounds went through this panel and 20% of them were active in at least one assay; those are over-represented in the sample as a whole. Calls of active or inactive are those of the source. Rule for the calls: active = growth percent below 10; inactive = the rest.
Possible outcomes: T for active, F for inactive

INSERT INTO results (compound, class_assignment) VALUES
  ('O=C1NN(C(=O)c2ccc(Cl)cc2)C(c2ccccc2)=N/C1=C\c1cn(-c2ccccc2)nc1-c1ccccc1', 'F'),
  ('COc1ccc(OC)c(C2OC(c3ccc4ccccc4c3O)=NN2C(C)=O)c1 (stereo not given)', 'F'),
  ('C=CCSc1n[nH]c(-c2cccs2)n1', 'F'),
  ('Cc1ccc(N2CCN(C(C)C(N)=O)CC2)cc1 (stereo not given)', 'F'),
  ('CCC1=CCC[C@@]2(C)CCC[C@@]3(C)CCCC(C)(C)[C@]1([O-])[O+]32', 'F'),
  ('COc1cc2c(cc1O)CCN1C[C@@H](CC(C)C)[C@@H](O)C[C@@H]21', 'F'),
  ('COc1cc(-c2nn(-c3cccc(NC(=O)c4ccc(N5CCOCC5)c(C(F)(F)F)c4)c3)cc2-c2ccncc2)ccc1Cl', 'F'),
  ('COc1ccc2[nH]c(=O)c(/C=N/Nc3nc(-c4ccccc4)cs3)c(O)c2c1', 'F'),
  ('CC(=O)Nc1nc(N)nc(NC(C)=O)c1N=O', 'F'),
  ('NC1N=C(SCC(=O)N2CCN(c3cc4c(cc3F)c(=O)c(C(=O)O)cn4C3CC3)CC2)NC(=O)/C1=C/c1ccc(Cl)cc1 (stereo not given)', 'F'),
  ('Oc1ccccc1/C=N/NC(=S)NC1CC2C=CC1C2 (stereo not given)', 'F'),
  ('O=C(Nc1ccncc1)C(=O)c1cn(S(=O)(=O)c2ccc(Cl)cc2)c2ccccc12', 'F'),
  ('CCCCC(CC)OC(=O)C(Br)CC (stereo not given)', 'F'),
  ('O=C([O][Sn]([O]C(=O)c1ccccn1)([c]1ccccc1)[c]1ccccc1)c1ccccn1', 'F'),
  ('Cc1nc2ncccc2nc1Nc1ccc(S(=O)(=O)Nc2ccccn2)cc1', 'F'),
  ('COc1ccc(-c2ccc(-c3ccc(-c4ccc(C(=N)N)cc4)s3)s2)cc1OC', 'T'),
  ('O=C(c1ccccc1)c1c(/C=C/c2ccccc2)c2ccccc2[nH]c1=O', 'F'),
  ('C1=Cc2ccccc2N(c2nnc(-c3ccccc3)o2)c2ccccc21', 'F'),
  ('CC(C)(C)n1cc(-c2ccnc(NCCNS(=O)(=O)c3ccc(Cl)cc3)c2)c(-c2cccc(O)c2)n1', 'F'),
  ('NC(=O)c1c(NC(=S)Nc2ccc(OC(F)(F)F)cc2)sc2c1CCC1(C2)OCCO1', 'F');
